- SUBJECT_OF_TEST: Dipeptidyl peptidase 9 (DPP9), recombinant wild-type (human, UniProt Q86TI2 1-863)
- Sequence (Q86TI2 other isoform, or with tags, fused parts or gaps limits assumed, form in doubt): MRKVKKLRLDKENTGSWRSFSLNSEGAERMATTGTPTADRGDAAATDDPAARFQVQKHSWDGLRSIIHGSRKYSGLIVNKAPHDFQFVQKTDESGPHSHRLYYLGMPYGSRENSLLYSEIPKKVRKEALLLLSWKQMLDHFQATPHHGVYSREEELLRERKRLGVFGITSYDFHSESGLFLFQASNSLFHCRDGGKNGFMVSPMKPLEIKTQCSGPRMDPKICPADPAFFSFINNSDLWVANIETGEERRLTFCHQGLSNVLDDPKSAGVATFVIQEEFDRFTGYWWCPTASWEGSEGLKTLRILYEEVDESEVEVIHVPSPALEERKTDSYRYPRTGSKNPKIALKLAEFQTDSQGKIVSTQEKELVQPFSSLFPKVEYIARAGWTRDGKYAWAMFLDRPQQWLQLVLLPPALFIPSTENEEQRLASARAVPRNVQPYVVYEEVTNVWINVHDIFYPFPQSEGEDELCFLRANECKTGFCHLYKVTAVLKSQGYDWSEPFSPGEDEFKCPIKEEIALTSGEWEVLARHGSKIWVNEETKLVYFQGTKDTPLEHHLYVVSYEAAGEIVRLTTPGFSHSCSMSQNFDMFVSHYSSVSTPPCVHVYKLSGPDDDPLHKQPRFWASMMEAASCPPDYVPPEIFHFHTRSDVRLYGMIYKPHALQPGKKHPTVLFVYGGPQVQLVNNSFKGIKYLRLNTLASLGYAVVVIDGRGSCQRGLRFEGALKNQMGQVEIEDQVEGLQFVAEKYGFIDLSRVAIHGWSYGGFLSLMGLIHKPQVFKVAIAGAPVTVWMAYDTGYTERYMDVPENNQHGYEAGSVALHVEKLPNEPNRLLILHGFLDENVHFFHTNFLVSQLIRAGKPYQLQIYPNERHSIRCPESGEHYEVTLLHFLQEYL
- EXPERIMENT: cell-based or functional assay
MEASURE_NAME: % DPP9 activity (Mean), 10 µM peptide (%)

Recorded % DPP9 activity (Mean), 10 µM peptide, per entry:
INSERT INTO assay_data (binder, measure_name, unit_annotation, experimental_value) VALUES
  ('RRRRSLRFLYAG [RRRRSLRFLYAG (SEQ ID NO: 47)]', '% DPP9 activity (Mean), 10 µM peptide', '%', 91.5),
  ('AAASLRFLYEG [AAASLRFLYEG (SEQ ID NO: 44)]', '% DPP9 activity (Mean), 10 µM peptide', '%', 91.2);

A: RRRRSLRFLFEG [RRRRSLRFLFEG (SEQ ID NO: 46)]
B: SLRFLFAG [SLRFLFAG (SEQ ID NO: 39)]
C: TLRFLFEG [TLRFLFEG (SEQ ID NO: 41)]
Returns the items ordered by % DPP9 activity (Mean), 10 µM peptide, from maximum to minimum. Answer by listing the labels in the order asked for.
A, C, B

P: SLRFLYEGAAA [SLRFLYEGAAA (SEQ ID NO: 45)]
Q: SLRFLYAG [SLRFLYAG (SEQ ID NO: 40)]
Hi there, can you help? I need to know whether P or Q has lower measured % DPP9 activity (Mean), 10 µM peptide. Refer to your chosen entry by its label in the reply.
Q
(Q: 16.3%, P: 23.9%)
